These data points were gathered from patent US5756291A.

# System: thrombin
# PROCEDURE_DETAILS: Thrombin inhibition Ki
# Format: biochemical
# CONDITION_LABEL: Table 7

SUBSTANCE	Ki [nM]
GGTTGGTGTGGTTGG#G#T: closely related 17-mer with MEA linkages	35
GGTTGG(dU)G(dU)GGTTGG: 15-mer with uracil for thymine	15
G*G*T*T*G*G*T*G*T*G*G*T*T*G*G: 15-mer with all thioate linkages	280
GGTTGGTGTGGTU'GG: 15-mer with 5-(1-pentynyl)uracil	20
GG(dU)TGGTGTGG(dU)TGG: 15-mer with uracil for thymine	80
5' GGTTGGTGTGGTT*G*G 3'	40

###

# TGT: thrombin
# PROCEDURE_DETAILS: Nitrocellulose filter binding, dissociation constant for thrombin
# Parameters: species or system human

SUBSTANCE	Kd
5' CGGGGAGAGGTTGGTGTGGTTGGCAATGGCTAGAGTAGTGAC GTTTTCGCGGTGAGGTCC 3' [Clone #29]	~200 nM
